TARGET_UNDER_TEST: CB1 (Homo sapiens)
Construct: gene CNR1; co-expressed with beta-arrestin 2 fused to the complementary fragment
Sequence (P21554 whole entry, the tested form may be a part): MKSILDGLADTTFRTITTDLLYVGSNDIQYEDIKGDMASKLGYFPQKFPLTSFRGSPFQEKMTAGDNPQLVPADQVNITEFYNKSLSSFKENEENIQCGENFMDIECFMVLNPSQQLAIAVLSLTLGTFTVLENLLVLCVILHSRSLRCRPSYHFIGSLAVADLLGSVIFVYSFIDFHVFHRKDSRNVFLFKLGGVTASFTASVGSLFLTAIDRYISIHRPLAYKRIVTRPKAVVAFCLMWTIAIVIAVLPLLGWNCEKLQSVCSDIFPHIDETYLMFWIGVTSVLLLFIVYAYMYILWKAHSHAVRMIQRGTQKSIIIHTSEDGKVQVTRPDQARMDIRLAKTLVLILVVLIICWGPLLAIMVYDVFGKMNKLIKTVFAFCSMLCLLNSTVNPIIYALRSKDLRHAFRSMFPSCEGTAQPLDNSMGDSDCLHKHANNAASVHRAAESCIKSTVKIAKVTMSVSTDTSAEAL
EXPERIMENTAL_PROTOCOL: NanoLuc complementation beta-arrestin […] recruitment, live cells
Type: cell-based
CONDITIONS: read-out: CB1 / EC50 (nM) (± 95% CI)
Below, each entry is listed alongside its reported EC50.
QUANTITY_MEASURED: EC50

[[record]]
molecule = "CCCCCn1cc(C(=O)c2cccc3ccccc23)c2ccccc21 [compound 19, JWH-018, reference compound]"
result = "45.1 nM"

[[record]]
molecule = "CC(C)[C@@H](NC(=O)c1nn(Cc2ccc(F)cc2)c2ccccc12)C(N)=O [compound 1, (R)-AB-FUBINACA]"
result = "1480 nM"

[[record]]
molecule = "COC(=O)[C@@H](NC(=O)c1nn(Cc2ccc(F)cc2)c2ccccc12)C(C)C [compound 2]"
result = "9.11 nM"

[[record]]
molecule = "CC(C)[C@H](NC(=O)c1nn(CC2CCCCC2)c2ccccc12)C(N)=O [compound 4]"
result = "6.16 nM"


Values compiled from paper PMC6532652.
